Where do these numbers come from? They come from PubChem BioAssay.

- Assay Text: caspase-8 TRAIL sensitization, hit retest, confirmation, cell-based, NB7+caspase-8, with/without TRAIL, luminescence panel (AID 651596)
- Experimental Parameters: NB7 neuroblastoma + caspase-8, without TRAIL, luminescence viability, without TRAIL, mean of runs, at 10 µM
Binarize activity at 90%; below is T, at or above is F.

Query block: Record C=Cc1ccc(Cn2c(C)c(C(=O)NCc3cccc(C(F)(F)F)c3)sc2=O)cc1 : is its activity strictly below 90%?
Result block: T

Query block: Record Cc1nc2c(-c3ccc(F)cc3)cnn2c(N)c1-c1ccc(F)cc1 : is its activity strictly below 90%?
Result block: T

Query block: Record CCc1ccc(-c2cn3nc(C)c(C)nc3n2)cc1 : is its activity strictly below 90%?
Result block: T

Query block: Record COC(=O)c1nn(-c2ccc3c(c2)CCN3C(C)=O)cc1O : is its activity strictly below 90%?
Result block: T

Query block: Record Cn1c(=O)n(CCc2ccccc2)c(=O)c2c1nc1n2CCCN1CCc1ccccc1 : is its activity strictly below 90%?
Result block: T

Query block: Record CCOC(=O)c1c(NC(=O)CCl)sc(C(=O)N(CC)CC)c1C : is its activity strictly below 90%?
Result block: F

Query block: Record Cc1ccc(-n2c(-c3ccc(Br)cc3)c[n+]3c2CCc2ccc4cccnc4c2-3)cc1 : is its activity strictly below 90%?
Result block: T

Query block: Record O=C(Nc1ccc(N2CCN(C(=O)c3cccs3)CC2)cc1)c1ccc([N+](=O)[O-])o1 : is its activity strictly below 90%?
Result block: F

Query block: Record COc1ccc(Oc2c(Cl)cnn(-c3ccc(F)cc3)c2=O)cc1 : is its activity strictly below 90%?
Result block: F

* * *

- Assay Text: inhibition of Brca1/Bard1 split-luciferase complementation, confirmation, counter-screen for Mdm2/MdmX interaction inhibitor project, luminescence, single concentration (AID 504668)
- Experimental Parameters: Brca1/Bard1 bimolecular luciferase complementation counterscreen, at 8 µM, stronger effect = higher value
Please go through the items and note down their inhibition.
State just the number; it will be interpreted in %.

Query block: # query: inhibition of entry Cc1ccc(C(C)C)cc1OCC(=O)Nc1nnc(C2CC2)s1
Result block: 33.4

Query block: # query: inhibition of entry COC(=O)c1c(NC(=O)c2ccc(OC(C)C)cc2)sc2c1CC(C)(C)NC2(C)C
Result block: 23.6

Query block: # query: inhibition of entry COc1ccc(N/N=C/c2c(C(=O)O)ccc3ccccc23)cc1
Result block: 24.1

Query block: # query: inhibition of entry Cc1cccc(/C=N/NC(=O)Cc2ccc(Cl)cc2)c1O
Result block: 29.9

Query block: # query: inhibition of entry CC(Oc1ccc(Br)cc1)C(=O)Nc1nc(-c2ccccn2)cs1 (stereo unspecified)
Result block: 35.4

Query block: # query: inhibition of entry Cc1nc(NC2=NCN(CCCN3CCOCC3)CN2)nc2c(C)cccc12
Result block: 25.4

Query block: # query: inhibition of entry CCOc1ccc(CN2CCN(CC(O)Cn3c4ccccc4c4ccccc43)CC2)cc1 (stereo unspecified)
Result block: 35.8

Query block: # query: inhibition of entry CC(C)[C@H](NC(=O)c1ccccc1Cl)C(=O)Nc1nc(-c2ccccn2)cs1
Result block: 35.6

Query block: # query: inhibition of entry Cc1ccc(-c2csc(=Nc3cccnc3)n2CCCn2ccnc2)cc1C
Result block: 24.3

Query block: # query: inhibition of entry O=C(CNc1ccccc1)N/N=C/c1c(O)ccc2ccccc12
Result block: 26.6

Query block: # query: inhibition of entry Cc1ccc(-c2csc(NC3OC(=O)c4ccccc43)n2)cc1 (stereo unspecified)
Result block: 23.7
